- Target System: Human M4 (Homo sapiens)
- Construct: expressed in transfected cells
- Sequence (P08173 1-479): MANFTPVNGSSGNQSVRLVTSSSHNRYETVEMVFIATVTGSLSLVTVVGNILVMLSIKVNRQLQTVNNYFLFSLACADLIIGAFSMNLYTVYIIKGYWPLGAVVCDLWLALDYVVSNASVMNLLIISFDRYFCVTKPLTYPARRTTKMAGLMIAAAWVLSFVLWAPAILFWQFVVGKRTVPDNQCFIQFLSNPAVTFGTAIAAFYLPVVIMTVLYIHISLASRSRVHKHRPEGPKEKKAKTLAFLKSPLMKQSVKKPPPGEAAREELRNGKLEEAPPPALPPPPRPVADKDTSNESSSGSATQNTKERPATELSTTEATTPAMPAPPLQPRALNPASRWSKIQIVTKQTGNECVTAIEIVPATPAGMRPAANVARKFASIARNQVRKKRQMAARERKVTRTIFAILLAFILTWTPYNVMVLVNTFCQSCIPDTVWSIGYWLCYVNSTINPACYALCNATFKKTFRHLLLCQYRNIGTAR
- Protocol Details: mAChR M4 cell-based functional assay (calcium flux, potentiation of EC20 acetylcholine response), hM4-Gqi5 CHO-K1 cells
- Conditions: Table 3; potentiation of EC20 acetylcholine response, calcium flux, CHO-K1 cells; read-out: Human M4 EC50
pEC50: −log10 of the molar value.
Lab note: anything with pEC50 at or over 6 counts as 1.0; the rest go in 0.0.

Determine whether measured pEC50 meets or exceeds 6 for Cc1c(N2CCc3ncc(-c4cccnc4)cc3C2)nn2c(C(F)(F)F)nnc2c1C [Compound 257]
1.0

Determine whether measured pEC50 meets or exceeds 6 for COc1ccc(-c2cnc3c(c2)CN(c2nn4c(C(F)(F)F)nnc4c(C)c2C)CC3)cn1 [Compound 258]
1.0

Determine whether measured pEC50 meets or exceeds 6 for Cc1c(N2CCc3ncc(-c4ccc(N5CCC(F)(F)C5)nc4)cc3C2)nn2cnnc2c1C [Compound 225]
1.0

Determine whether measured pEC50 meets or exceeds 6 for Cc1c(N2CCc3ncc(C(=O)NCc4cncs4)cc3C2)nn2c(C(F)(F)F)nnc2c1C [Compound 228]
0.0

Determine whether measured pEC50 meets or exceeds 6 for Cc1c(N2CCc3ncc(-n4ccc5ccccc54)cc3C2)nn2c(C(F)(F)F)nnc2c1C [Compound 248]
0.0

Determine whether measured pEC50 meets or exceeds 6 for Cc1c(N2CCc3ncc(OCC4CC4(F)F)cc3C2)nn2cnnc2c1C (stereo not drawn) [Compound 266]
1.0

Determine whether measured pEC50 meets or exceeds 6 for Cc1c(N2CCc3ncc(N4CCCn5nccc54)cc3C2)nn2cnnc2c1C [Compound 209]
1.0

Determine whether measured pEC50 meets or exceeds 6 for Cc1c(N2Cc3cc(C(F)(F)F)cnc3C(C)(C)C2)nn2cnnc2c1C [Compound 269]
0.0

Determine whether measured pEC50 meets or exceeds 6 for Cc1c(N2CCc3ncc(-c4ccc(-n5ccnc5)nc4)cc3C2)nn2cnnc2c1C [Compound 192]
1.0

Determine whether measured pEC50 meets or exceeds 6 for Cc1cc2nncn2nc1N1CCc2ncc(Nc3ccnn3C)cc2C1 [Compound 190]
1.0

Determine whether measured pEC50 meets or exceeds 6 for CCCCn1nc(C)cc1Nc1cnc2c(c1)CN(c1nn3cnnc3c(C)c1C)CC2 [Compound 213]
0.0

Determine whether measured pEC50 meets or exceeds 6 for Cc1c(N2CCc3ncc(-c4ccc(N5CC6(C5)CC(F)(F)C6)nc4)cc3C2)nn2cnnc2c1C [Compound 208]
1.0

Determine whether measured pEC50 meets or exceeds 6 for Cc1c(N2CCc3ncc(Oc4ccccc4F)cc3C2)nn2cnnc2c1C [Compound 159]
1.0
